Target: DYRK3 (Homo sapiens)
Construct: purchased Carna Biosciences, Inc. 04-133
Sequence (O43781 1-568 isoform O43781-2): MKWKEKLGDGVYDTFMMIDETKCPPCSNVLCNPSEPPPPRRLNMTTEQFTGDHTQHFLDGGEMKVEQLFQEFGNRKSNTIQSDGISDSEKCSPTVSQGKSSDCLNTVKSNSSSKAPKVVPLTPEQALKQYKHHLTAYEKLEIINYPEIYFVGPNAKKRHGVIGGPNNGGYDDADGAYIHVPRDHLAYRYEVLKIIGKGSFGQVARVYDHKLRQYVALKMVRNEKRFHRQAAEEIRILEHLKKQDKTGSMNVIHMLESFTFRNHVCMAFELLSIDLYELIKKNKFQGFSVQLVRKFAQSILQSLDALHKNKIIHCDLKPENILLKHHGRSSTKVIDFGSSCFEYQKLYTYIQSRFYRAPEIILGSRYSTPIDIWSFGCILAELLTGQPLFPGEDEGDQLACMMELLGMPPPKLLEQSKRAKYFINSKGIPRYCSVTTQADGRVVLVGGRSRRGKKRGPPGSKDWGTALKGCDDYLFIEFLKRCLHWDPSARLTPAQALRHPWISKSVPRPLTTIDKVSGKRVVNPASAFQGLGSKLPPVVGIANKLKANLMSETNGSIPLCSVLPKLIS
Assay: Inhibition test on activity of DYRK family, mobility shift assay (MSA): DYRK3
Type: biochemical
Details: read-out: Inhibitory activity DYRK 3
Measured endpoint: IC50

Example results:
Compound	Measured endpoint	Experimental value
N#CCN1CCC[C@@H]2NC(=O)N(c3nc4c5c(ccc4s3)OCC5)[C@@H]2C1 (racemic)	IC50	100 to 1000 nM
N#CCN1CC[C@H]2NC(=O)N(c3nc4c5c(ccc4s3)OCC5)[C@H]2C1 (single isomer, unassigned)	IC50	≥ 1000 nM
O=C1N[C@H]2CCN(C3CC3)C[C@H]2N1c1nc2c3c(ccc2s1)OCC3 (racemic) [Example 98]	IC50	≥ 1000 nM
N#C[C@H]1C[C@H]2NC(=O)N(c3nc4c5c(ccc4s3)OCO5)[C@H]2CO1	IC50	≥ 1000 nM

The compound identified as N#CCN1C[C@@H]2NC(=O)N(c3nc4c5c(ccc4s3)OCC5)[C@@H]2C1 (racemic) registered its IC50 at 100 to 1000 nM

Kindly note the recorded IC50 for N#C[C@H]1C[C@@H]2[C@H](CO1)NC(=O)N2c1nc2c3c(ccc2s1)OCO3 , which is 100 to 1000 nM

# IC50 (compound: C[C@@H]1NC(=O)N(c2nc3c4c(ccc3s2)OCC4)[C@@H]1CN1CC(F)C1 ) is ≥ 1000 nM

Entry CC1(C)C[C@H]2[C@@H](CO1)NC(=O)N2c1nc2c3c(ccc2s1)OCC3 , IC50 reported as ≥ 1000 nM

GET /value?item= C[C@@H]1NC(=O)N(c2nc3c4c(ccc3s2)OCC4)[C@@H]1CN1CCC(F)(F)C1 &field=IC50 returns ≥ 1000 nM

So for O=C1N[C@@H]2CCOC[C@H]2N1c1nc2c3c(ccc2s1)OCC3 , the logged IC50 turned out to be 100 to 1000 nM

For this compound ( C#CCN1C[C@@H]2NC(=O)N(c3nc4c5c(ccc4s3)OCC5)[C@@H]2C1 (racemic) ), measured IC50 is 100 to 1000 nM

IC50 for C[C@H]1C[C@H]2NC(=O)N(c3nc4c5c(ccc4s3)OCC5)C2CN1C (stereo partly shown) is ≥ 1000 nM

Recorded IC50 (compound O=C1N[C@H]2CCN(CC(F)F)C[C@H]2N1c1nc2c3c(ccc2s1)OCC3 (racemic) ): ≥ 1000 nM

According to the records, this compound C[C@@H]1C[C@@H]2NC(=O)N(c3nc4c5c(ccc4s3)OCC5)[C@@H]2CN1C displays IC50 of ≥ 1000 nM

For C[C@@H]1NC(=O)N(c2nc3c4c(ccc3s2)OCC4)[C@@H]1CN1CC(F)(F)C1 the compound record lists IC50 as ≥ 1000 nM

Record summary for C[C@@H]1NC(=O)N(c2nc3c4c(ccc3s2)OCC4)[C@@H]1CN1CC[C@H](F)C1 : reported IC50 = ≥ 1000 nM

* * *

Molecular target: DYRK3 (Homo sapiens, UniProt O43781)
Construct: purchased Carna Biosciences, Inc. 04-133
Assay: Inhibition test on activity of DYRK family, mobility shift assay (MSA): DYRK3
Format: biochemical
Conditions: read-out: Inhibitory activity DYRK 3
pIC50: −log10 of the molar value.
// reported pIC50 for each item listed

Compound	pIC50
C#CCN1CC[C@@H]2NC(=O)N(c3nc4c5c(ccc4s3)OCC5)[C@@H]2C1 (racemic) [Example 99]	6.00 to 7.00
C#CCN1CCC[C@@H]2NC(=O)N(c3nc4c5c(ccc4s3)OCC5)[C@@H]2C1 (racemic)	≤ 6.00
O=C1N[C@H]2CCCN(C3CC3)C[C@H]2N1c1nc2c3c(ccc2s1)OCC3 (racemic)	6.00 to 7.00

// next item, pIC50 requested
According to the records, this compound O=C1N[C@@H]2COCC[C@H]2N1c1nc2c3c(ccc2s1)OCC3 displays pIC50 of 6.00 to 7.00

* * *

Below is a list of entries, each paired with its recorded pIC50 value.
Molecular target: DYRK1B (Homo sapiens)
Construct: purchased Carna Biosciences, Inc. 04-131
Sequence (Q9Y463 whole entry): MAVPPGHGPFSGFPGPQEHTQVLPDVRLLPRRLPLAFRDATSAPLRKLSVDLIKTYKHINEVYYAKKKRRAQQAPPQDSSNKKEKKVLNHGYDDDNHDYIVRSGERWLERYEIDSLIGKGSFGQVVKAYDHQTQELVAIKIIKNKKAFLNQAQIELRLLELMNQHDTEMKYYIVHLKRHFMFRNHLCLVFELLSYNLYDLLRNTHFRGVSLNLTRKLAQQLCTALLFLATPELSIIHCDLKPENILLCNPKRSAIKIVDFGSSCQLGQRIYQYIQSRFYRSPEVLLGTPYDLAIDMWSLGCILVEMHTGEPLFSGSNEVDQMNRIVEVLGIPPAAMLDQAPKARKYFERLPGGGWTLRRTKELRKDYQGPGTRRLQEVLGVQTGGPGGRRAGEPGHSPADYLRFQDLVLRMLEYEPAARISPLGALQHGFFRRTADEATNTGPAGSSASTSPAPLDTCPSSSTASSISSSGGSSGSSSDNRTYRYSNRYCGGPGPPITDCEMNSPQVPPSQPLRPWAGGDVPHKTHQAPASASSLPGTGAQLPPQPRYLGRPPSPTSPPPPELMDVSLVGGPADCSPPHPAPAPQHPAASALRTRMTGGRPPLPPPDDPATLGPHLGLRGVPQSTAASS
Experiment: Inhibition test on activity of DYRK family, mobility shift assay (MSA): DYRK1B
Format: biochemical
Settings: MSA, FITC-labeled DYRKtide peptide, ATP 200 μM; read-out: Inhibitory activity DYRK 1B (IC50 class)
pIC50: −log10 of the molar value.

Compound	pIC50
C[C@@H]1NC(=O)N(c2nc3c4c(ccc3s2)OCC4)[C@@H]1CN1CCOCC1 [Example 23]	> 8.00
CCN1CC[C@H]2NC(=O)N(c3nc4c5c(ccc4s3)OCC5)[C@H]2C1 (relative stereo) [Example 11]	7.00 to 8.00
C[C@H]1C[C@@H]2[C@H](CO1)NC(=O)N2c1nc2c3c(ccc2s1)OCO3 [Example 139]	> 8.00
C[C@H]1C[C@@H]2[C@H](CO1)NC(=O)N2c1nc2c3c(ccc2s1)OCCO3 [Example 39]	> 8.00
C[C@@H]1C[C@@H]2[C@H](CO1)NC(=O)N2c1nc2c3c(ccc2s1)OCC3 [Example 160]	6.00 to 7.00

Sure, the documented pIC50 for CN1CC[C@H]2NC(=O)N(c3nc4c5c(ccc4s3)OCC5)[C@H]2C1 (single isomer, unassigned) [Example 27] is ≤ 6.00

Looking up CC[C@H]1C[C@@H]2[C@H](CO1)NC(=O)N2c1nc2c3c(ccc2s1)OCO3 [Example 138] , I see its pIC50 listed as > 8.00

Record summary for CN1C[C@H]2NC(=O)N(c3nc4c5c(ccc4s3)OCC5)[C@H]2C1 (relative stereo) [Example 14] : reported pIC50 = 7.00 to 8.00

Memo: N#CC[C@H]1OC[C@@H]2NC(=O)N(c3nc4c5c(ccc4s3)OCC5)[C@@H]21 [Example 162] , reported pIC50: 7.00 to 8.00

* * *

Target: DYRK3 (Homo sapiens, UniProt O43781)
Construct: purchased Carna Biosciences, Inc. 04-133
Test: Inhibition test on activity of DYRK family, mobility shift assay (MSA): DYRK3
Format: biochemical
Details: MSA, FITC-labeled DYRKtide peptide, ATP 20 μM; read-out: Inhibitory activity DYRK 3 (IC50 class)
pIC50: −log10 of the molar value.
Measured endpoint: pIC50

Compound	Measured endpoint	Experimental value
O=C1N[C@H]2CCN(C3COC3)C[C@H]2N1c1nc2c3c(ccc2s1)OCO3 (racemic) [Example 81]	pIC50	≤ 6.00
O=C1N[C@H]2CNCCC[C@H]2N1c1nc2c3c(ccc2s1)OCC3 [Example 5]	pIC50	6.00 to 7.00
O=C1N[C@H]2CO[C@@H](CO)C[C@H]2N1c1nc2c3c(ccc2s1)OCO3 [Example 147]	pIC50	6.00 to 7.00
O=C1N[C@H]2CNC3(CC3)C[C@H]2N1c1nc2c3c(ccc2s1)OCC3 [Example 56]	pIC50	6.00 to 7.00

Entry O=C1N[C@H]2CC3(CC3)NC[C@H]2N1c1nc2c3c(ccc2s1)OCC3 [Example 57] — recorded pIC50 = 6.00 to 7.00

Looking up CN1CC[C@@H]2NC(=O)N(c3nc4c5c(ccc4s3)OCC5)[C@@H]2CC1 [Example 67] , I see its pIC50 listed as 6.00 to 7.00

pIC50 in this record for C[C@H]1NC(=O)N(c2nc3c4c(ccc3s2)OCC4)[C@@H]1CN(C)C [Example 22] : ≤ 6.00

Looking up COC[C@@H]1[C@H](C)NC(=O)N1c1nc2c3c(ccc2s1)OCC3 [Example 44] , I found its pIC50 recorded as 6.00 to 7.00
